# Tested on: SUM190PT
# Protocol notes: area over the GR curve, 72 h; higher = more effect;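 also: Dye Drop or Deep Dye Drop imaging of viable cells in 384-well plates (Hoechst nuclei, LIVE/DEAD dye), nine half-log doses, GR normalized to DMSO controls and time-zero plates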
Assay readout: area over the GR curve (GR)
Reply with just the number (in GR).

Task: Please state recorded area over the GR curve (tested on SUM190PT) of CN1CC[C@H](c2c(O)cc(O)c3c(=O)cc(-c4ccccc4Cl)oc23)[C@H](O)C1 [Flavopiridol] (max 1 µM)
Output: 0.348

Task: # query: area over the GR curve | item CN1CCN(C(=O)c2ccc3cc(CCNc4ncnc5ccc(C#N)cc45)ccc3c2)CC1 [senexin b] (max 10 µM) | system: SUM190PT
Output: 0.435

Task: Lab request: please report area over the GR curve under test system SUM190PT for CCN1CCN(Cc2ccc(Nc3ncc(F)c(-c4cc(F)c5nc(C)n(C(C)C)c5c4)n3)nc2)CC1 (max 10 µM)
Output: 0.66

Task: SUM190PT / area over the GR curve / C[C@@H]1COCCN1c1cc(C2([S@](C)(=N)=O)CC2)nc(-c2cc[nH]c3nccc2-3)n1 [AZD6738] (max 10 µM) : value?
Output: 0.124

Task: Can you look up area over the GR curve on SUM190PT for CN(C)C(=O)c1cc2cnc(Nc3ccc(N4CCNCC4)cn3)nc2n1C1CCCC1 [LEE011/Ribociclib] (max 10 µM) ?
Output: 0.576

Task: Query the reported area over the GR curve for SUM190PT; item: O=C(CCCCCCC(=O)Nc1ccccc1)NO [Vorinostat] (max 10 µM)
Output: 0.426

Task: Give the reported area over the GR curve for CC(C)Nc1cc(-c2c[nH]c(C(=O)N[C@H](CO)c3cccc(Cl)c3)c2)c(Cl)cn1 [BVD523] (max 10 µM) (system: SUM190PT).
Output: 0.218

Task: Query the reported area over the GR curve for SUM190PT; item: Cc1nc(-c2cn3c(n2)-c2ccc(-c4cnn(C(C)(C)C(N)=O)c4)cc2OCC3)n(C(C)C)n1 [Taselisib/GDC0032] (max 10 µM)
Output: 0.298

Task: SUM190PT / area over the GR curve / CN(C)C/C=C/C(=O)Nc1ccc(C(=O)Nc2cccc(Nc3ncc(Cl)c(-c4c[nH]c5ccccc45)n3)c2)cc1 [THZ1] (max 1 µM) : value?
Output: 0.767

Task: What value of area over the GR curve on SUM190PT does CC[C@@H]1C(=O)N(C)c2cnc(Nc3ccc(C(=O)N[C@H]4CC[C@H](N5CCN(CC6CC6)CC5)CC4)cc3OC)nc2N1C(C)C [Volasertib/BI6727] (max 1 µM) have?
Output: 0.621

Task: Tell me reported area over the GR curve for O=C1NC(=NCc2cccs2)SC1=Cc1ccc2ncccc2c1 [R0-3306] (max 10 µM) , tested with SUM190PT.
Output: 0.176

Task: Record lookup: for SUM190PT, what area over the GR curve belongs to CCc1cnn2c(NCc3ccc[n+]([O-])c3)cc(N3CCCC[C@H]3CCO)nc12 (max 1 µM) ?
Output: 0.654

Task: // fetch SUM190PT area over the GR curve for `COc1cccc(OCCCN)c1-c1cc(Nc2cnc(C#N)cn2)n[nH]1`
Output: 0.598

Task: Give recorded area over the GR curve with SUM190PT for the following molecule: NC1(C(=O)N[C@@H](CCO)c2ccc(Cl)cc2)CCN(c2nc[nH]c3nccc2-3)CC1 [AZD5363] (max 10 µM)
Output: 0.272

Task: What is its area over the GR curve for SUM190PT? Entry: Nc1ccc(-c2ccc3ncc4ccc(=O)n(-c5cccc(C(F)(F)F)c5)c4c3c2)cn1 [Torin2] (max 1 µM)
Output: 0.749

Task: Record `COc1ccc2c(c1)[C@]1(C[C@H]1c1ccc3c(/C=C/c4ccc(CN5C[C@@H](C)O[C@@H](C)C5)cc4)n[nH]c3c1)C(=O)N2` : what is its area over the GR curve with SUM190PT?
Output: 0.751
